Below, each of the binders is paired with its reported Activity (%)* value.
# Target entity: EGLN1
# Assay procedure: cell-based or functional assay
Where no end group is shown, it is not given here.
Answer format: numeric, % implied, no suffix.

The cases that follow already have their Activity (%)* on record.
DTDLDIEALAPYIPADDDFQ [DTDLDIEALApYIPADDDFQ]: 50.7
DTDLDLEANAPYIPADDDFQ [DTDLDLEANApYIPADDDFQ]: 49.2
DTDLDFEALAPYIPADDDFQ [DTDLDFEALApYIPADDDFQ]: 65.2

Form field: reported Activity (%)* of DTDLDYEALAPYIPADDDFQ (not fully specified; printed as DTDLDYEALApYIPADDDFQ) [DTDLDYEALApYIPADDDFQ]
94.2

Moving on to DTDLDLEAMAPYIPADDDFQ [DTDLDLEAMApYIPADDDFQ]
63.7

Moving on to DTDLDVEAFAPYIPADDDFQ (not fully specified; printed as DTDLDVEAFApYIPADDDFQ) [DTDLDVEAFApYIPADDDFQ]
34.1

Moving on to DTDLDLEMLLPYIPMDDDFQ (not fully specified; printed as DTDLDLEMLLpYIPMDDDFQ) [DTDLDLEMLLpYIPMDDDFQ]
2.36

Moving on to DTDLDLEAEAPYIPADDDFQ [DTDLDLEAEApYIPADDDFQ]
9.97
